Parameter growth: see the listing below.
Tested on: TK-10 renal
Assay method text: NCI-60 one-dose screen, 48 h (100 = growth as untreated, 0 = no growth, -100 = all killed)
Applied conditions: 10 µM unless noted
The panel holds about 83,000 compounds, 20% with a hit somewhere; the sample as a whole holds those more often.
The figure you give is taken to be in %; do not add the unit.

COc1cc(C(=O)NNC(=O)c2ccc(NC(=O)CCl)cc2)cc(OC)c1OC : 107

Now turn to the next compound.
Qu. Param item = `C[C@@H](N)c1ccc(C(=O)Nc2ccnc3[nH]ccc23)cc1` ; retrieve measured growth.
Ans. 46.2

----------
System: MDA-MB-231 breast
Assay method text: NCI-60 one-dose screen, 48 h (100 = growth as untreated, 0 = no growth, -100 = all killed)
Applied conditions: 10 µM unless noted
About 83,000 compounds went through this panel and 20% of them were active in at least one assay; those are over-represented in the sample as a whole.
# growth annotations
Please respond with the number in % and leave the unit unwritten.

Recorded growth, per entry:
COc1ccc(-c2ccc3c(N4CCOC[C@@H]4C)nc(N4CCOC[C@@H]4C)nc3n2)cc1CO : 13
O=C(Nc1ccc(Nc2ncnc3sc4c(c23)CCOC4)cc1)Nc1ccc(Cl)c(C(F)(F)F)c1 : 95.2
COC(=O)[C@]12CC[C@@H](C)[C@H](C)[C@@H]1C1=CC[C@@H]3[C@@]4(C)C(c5cnco5)=C[C@@](C)(CO)C4=CC[C@@]3(C)[C@]1(C)CC2 : 58.8

Qu. # get_value(readout= growth, system= MDA-MB-231 breast) for `O=C(Nc1cnn2ccc(N3CCC[C@@H]3c3cc(F)ccc3F)nc12)N1CC[C@H](O)C1`
Ans. 88.2
